Please respond with reported luciferase expression (second part of table, values relative to LIPO2000) for every item in the list.
Test system: cos-7 cells
PROTOCOL_TEXT: DNA transfection: luciferase expression relative to Lipofectamine 2000
Format: cell-based
EXPERIMENTAL_SETUP: lipid/DNA 25 w/w; 300 ng of DNA per well
Procedure: 14,000 cos-7 cells (ATCC, Manassas, Va.) were seeded into each well of a solid white or clear 96 well plate (Corning-Costar, Kennebunk, Me.) and allowed to attached overnight in growth medium, composed of: 500 ml phenol red minus DMEM, 50 ml heat inactivated FBS, 5 ml penicillin/streptomycin (Invitrogen, Carlsbad, Calif.). […] Luminescence was analyzed using bright-glo assay kits (Promega). […] Luminescence was measured using a Mithras Luminometer (Berthold, Oak Ridge, Tenn.). […]
Answers are plain numbers.

[
  {
    "COMPOUND": "CCCCCCCCCCCCNC(=O)CCN(CCC(=O)NCCCCCCCCCCCC)CC(C)O (stereo not drawn) [ND21]",
    "READOUT_NUMBER": 0.4
  }
]

Quick one: give me luciferase expression (second part of table, values relative to LIPO2000) for each item below, same order please.
1. CCCCCCCCCCCCNC(=O)CCN(CCC(=O)NCCCCCCCCCCCC)C(C)(CO)CO [ND26]
2. CCCCCCCCCCCCNC(=O)CCN(CCC(=O)NCCCCCCCCCCCC)C(CO)CO [ND25]
3. CCCCCCCCCCCCCCCOC(=O)CC[N+](C)(CCC[N+](C)(CCC(=O)OCCCCCCCCCCCCCCC)CCC(=O)OCCCCCCCCCCCCCCC)CCC(=O)OCCCCCCCCCCCCCCC [QG100]
4. CCCCCCCCCCCCCCOC(=O)CCN(CCOCCO)CCC(=O)OCCCCCCCCCCCCCC [LF31]
5. CCCCCCCCCCCCCCCOC(=O)CCN(CCC(=O)OCCCCCCCCCCCCCCC)C(CO)CO [LG25]

## Output
1. 0.0
2. 0.0
3. 94.5
4. 266.8
5. 63.9

====

PROTOCOL_TEXT: DNA delivery: raw luciferase expression (relative light units) of best-transfecting lipids
Assay type: cell-based
EXPERIMENTAL_SETUP: lipid/DNA 5 w/w; 300 ng of DNA per well
I'd appreciate it if you could supply Raw values for luciferase expression values for the items below.
Answers are plain numbers, in relative lights units.

Hey, quick one: what's Raw values for luciferase expression for each of these?
1. CCCCCCCCCCCCNC(=O)CCN(C)CCCN(CCC(=O)NCCCCCCCCCCCC)CCC(=O)NCCCCCCCCCCCC
2. CCCCCCCCCCCCCCCNC(=O)CCN(CCC(=O)NCCCCCCCCCCCCCCC)CCC1CCCN1C (stereo not drawn)
3. CCCCCCCCCCCCCCNC(=O)CCN(CCC(=O)NCCCCCCCCCCCCCC)CCN(CCO)CCO
4. CCCCCCCCCCCCNC(=O)CCN(C)CCN(CCC(=O)NCCCCCCCCCCCC)CCC(=O)NCCCCCCCCCCCC
5. CCCCCCCCCCCCCCCNC(=O)CCN(CC)CCN(CC)CCC(=O)NCCCCCCCCCCCCCCC
6. CCCCCCCCCCCCNC(=O)CCN(CCC(=O)NCCCCCCCCCCCC)CC(O)CO (stereo not drawn)

## Output
1. 42837
2. 1184771
3. 4087285
4. 4619654
5. 765795
6. 1231973

# map each compound to its Raw values for luciferase expression
1. CCCCCCCCCCCCCCCCNC(=O)CCN(C)CCCN(C)CCC(=O)NCCCCCCCCCCCCCCCC
2. CCCCCCCCCCCCCCNC(=O)CCN(CCCN(CCC(=O)NCCCCCCCCCCCCCC)CCC(=O)NCCCCCCCCCCCCCC)CCC(=O)NCCCCCCCCCCCCCC
3. CCCCCCCCCCCCCCNC(=O)CCN(CC)CCCN(CC)CCC(=O)NCCCCCCCCCCCCCC
4. CCCCCCCCCCCCCCNC(=O)CCN(CCCN(CCO)CCO)CCC(=O)NCCCCCCCCCCCCCC
5. CCCCCCCCCCCCCCNC(=O)CCN(CCCN1CCOCC1)CCC(=O)NCCCCCCCCCCCCCC
6. CCCCCCCCCCCCNC(=O)CCN(CCO)CCN(CCC(=O)NCCCCCCCCCCCC)CCC(=O)NCCCCCCCCCCCC

## Output
1: 1543275; 2: 8015; 3: 2283250; 4: 3436007; 5: 1670695; 6: 2087995

====

Assign Raw values for luciferase expression to each entry below.
PROTOCOL_TEXT: DNA delivery: raw luciferase expression (relative light units) of best-transfecting lipids
Format: cell-based
EXPERIMENTAL_SETUP: lipid/DNA 5 w/w; 300 ng of DNA per well

Would you please look over these solved cases?
[
  {
    "COMPOUND": "CCCCCCCCCCCCCCNC(=O)CCN(CCCO)CCC(=O)NCCCCCCCCCCCCCC [NF20]",
    "Raw values for luciferase expression": "1801431 relative lights units"
  },
  {
    "COMPOUND": "CCCCCCCCCCCCCCCNC(=O)CCN(CCCN(CCO)CCO)CCC(=O)NCCCCCCCCCCCCCCC [NG87]",
    "Raw values for luciferase expression": "1005875 relative lights units"
  },
  {
    "COMPOUND": "CCCCCCCCCCCCCCCCNC(=O)CCN(CCO)CCN(CCO)CCC(=O)NCCCCCCCCCCCCCCCC [NP103]",
    "Raw values for luciferase expression": "308844 relative lights units"
  },
  {
    "COMPOUND": "CCCCCCCCCCCCNC(=O)CCN(CCCCCO)CCC(=O)NCCCCCCCCCCCC [ND32]",
    "Raw values for luciferase expression": "2745231 relative lights units"
  },
  {
    "COMPOUND": "CCCCCCCCCCCCCCCCNC(=O)CCN(CCN(CCC(=O)NCCCCCCCCCCCCCCCC)C(C)C)C(C)C [NP62]",
    "Raw values for luciferase expression": "33188 relative lights units"
  }
]

Provide reported Raw values for luciferase expression for each item, in the same order as listed.
1. CCCCCCCCCCCCCCCCNC(=O)CCN(CCC(=O)NCCCCCCCCCCCCCCCC)CCN(CCC(=O)NCCCCCCCCCCCCCCCC)CCC(=O)NCCCCCCCCCCCCCCCC [NP99]
2. CCCCCCCCCCCCNC(=O)CCN(CCC(=O)NCCCCCCCCCCCC)CC(C)O (centres unmarked) [ND22]
3. CCCCCCCCCCCCCCNC(=O)CCN(CCC(=O)NCCCCCCCCCCCCCC)C(CO)CO [NF25]
4. CCCCCCCCCCCCCCNC(=O)CCN(CCOC)CCC(=O)NCCCCCCCCCCCCCC [NF10]
5. CCCCCCCCCCCCNC(=O)CCN(CCC(=O)NCCCCCCCCCCCC)CC(C)O (centres unmarked) [ND21]

## Output
1. 9767 relative lights units
2. 1083569 relative lights units
3. 1366194 relative lights units
4. 838283 relative lights units
5. 1213862 relative lights units

Dear reader, for each entry below, please note its Raw values for luciferase expression.
1. CCCCCCCCCCCCNC(=O)CCN(CCCCCCO)CCC(=O)NCCCCCCCCCCCC [ND36]
2. CCCCCCCCCCCCCCCNC(=O)CCN(CC)CCCN(CC)CCC(=O)NCCCCCCCCCCCCCCC [NG64]

## Output
["2945357 relative lights units", "1972838 relative lights units"]

====

Exercise: state measured luciferase expression, second set of columns (replicate set of data) for each of the molecules provided.
System: cos-7 cells
PROTOCOL_TEXT: DNA transfection: luciferase expression relative to Lipofectamine 2000
Assay type: cell-based
EXPERIMENTAL_SETUP: replicate set, 4th column; no head printed (15 w/w by the raw values)
Give bare numbers.

[
  {
    "MOLECULE": "CCCCCCCCCCCCCCNC(=O)CCN(CC)CCN(CC)CCC(=O)NCCCCCCCCCCCCCC [NF61]",
    "READOUT_NUMBER": 1.1
  },
  {
    "MOLECULE": "CCCCCCCCCCCCNC(=O)CCN(CCCO)CCC(=O)NCCCCCCCCCCCC [ND20]",
    "READOUT_NUMBER": 0.0
  }
]

Quick one: give me luciferase expression, second set of columns (replicate set of data) for each item below, same order please.
1. CCCCCCCCCCCCCCNC(=O)CCN(CCO)CCN(CCO)CCC(=O)NCCCCCCCCCCCCCC [NF103]
2. CCCCCCCCCCCCNC(=O)CCN(CCCN(CCC(=O)NCCCCCCCCCCCC)CCC(=O)NCCCCCCCCCCCC)CCC(=O)NCCCCCCCCCCCC [ND100]
3. CCCCCCCCCCCCNC(=O)CCN(CCC(=O)NCCCCCCCCCCCC)CCN(CCC(=O)NCCCCCCCCCCCC)CCC(=O)NCCCCCCCCCCCC [ND99]
4. CCCCCCCCCCCCCCCCNC(=O)CCN(CCO)CCN(CCO)CCC(=O)NCCCCCCCCCCCCCCCC [NP103]

## Output
1: 0.0; 2: 0.6; 3: 2.2; 4: 1.4
